All values here come from paper PMC4355590.

Experiment: Pharmacokinetic study: volunteers orally received 60 mL of guaco syrup spiked with 1500 mg of COU, plasma by HPLC-MS/MS
Format: in vivo, human
Condition set: both sexes, human, plasma, oral, 1500 mg; Vd/f multiplied by the bioavailability 0.034 of ref 32; read-out: estimated volume of distribution (Vd = 6733.0 x 0.034)
Description: The weight ranged from 63 to 88 kg and the height from 1.65 to 1.80 m. The volunteers were submitted to the medical consultations and clinical analyses before their participation in the study. […] Quantification was performed in Multiple Reaction Monitoring (MRM) mode, maintaining the dwell time at 300 and 400 ms for the positive and negative ion modes, respectively. […]

Given smiles: O=c1ccc2ccccc2o1
Vd [L]: 229

---

Experiment: Stability in human plasma: short-term, freeze-thaw and long-term
Format: in vitro ADME
Condition set: Short-term: plasma at room temperature for 8 h; high level (1250.0, 750.0, 750.0, 500.0 ng/mL); n = 8, ± SD

Compound: O=C(O)/C=C/c1ccccc1O [OCA, o-coumaric acid]
Measurement unit: ng/mL
Mean recovery: 750.6
//
Compound: O=c1ccc2ccccc2o1 [COU, 1,2 benzopyrone]
Measurement unit: ng/mL
Mean recovery: 1205.5
//
Compound: C=C1C[C@@]23CC[C@H]4[C@@](C)(CCC[C@@]4(C)C(=O)O)[C@@H]2CC[C@@H]1C3 [KAU, kaurenoic acid]
Measurement unit: ng/mL
Mean recovery: 498.9
//
Compound: O=c1ccc2ccc(O)cc2o1 [7-HCOU, 7-hydroxycoumarin]
Measurement unit: ng/mL
Mean recovery: 738.1

---

Parameter: Mean recovery. Scope: all listed entries.
Experiment: Post-preparative stability of extracted samples
Format: physicochemical
Condition set: post-preparative: extracted samples 24 hours at 20°C; high level (1250.0, 750.0, 750.0, 500.0 ng/mL); n = 8, ± SD
Recorded endpoint: Mean recovery

Compound: O=C(O)/C=C/c1ccccc1O
Observed result: 727.4 ± 34.5 ng/mL

Compound: C=C1C[C@@]23CC[C@H]4[C@@](C)(CCC[C@@]4(C)C(=O)O)[C@@H]2CC[C@@H]1C3
Observed result: 509.8 ± 6.6 ng/mL

Compound: O=c1ccc2ccccc2o1
Observed result: 1281.3 ± 44.2 ng/mL

Compound: O=c1ccc2ccc(O)cc2o1 [7-HCOU, 7-hydroxycoumarin]
Observed result: 776.4 ± 18.7 ng/mL

---

Experiment: Stability in human plasma: short-term, freeze-thaw and long-term
Type: in vitro ADME
Condition set: Long-term: plasma at -40°C, 60 days; high level (1250.0, 750.0, 750.0, 500.0 ng/mL); n = 8, ± SD
Recorded endpoint: Mean recovery (ng/mL)

Compound: C=C1C[C@@]23CC[C@H]4[C@@](C)(CCC[C@@]4(C)C(=O)O)[C@@H]2CC[C@@H]1C3
Measurement unit: ng/mL
Observed result: 463.2
--
Compound: O=C(O)/C=C/c1ccccc1O
Measurement unit: ng/mL
Observed result: 606.3
--
Compound: O=c1ccc2ccc(O)cc2o1 [7-HCOU, 7-hydroxycoumarin]
Measurement unit: ng/mL
Observed result: 674.4
--
Compound: O=c1ccc2ccccc2o1
Measurement unit: ng/mL
Observed result: 1265.7

---

Parameter: RE. Scope: all listed entries.
Experiment: Post-preparative stability of extracted samples
Assay type: physicochemical
Condition set: post-preparative; high level

Molecule: O=c1ccc2ccc(O)cc2o1 [7-HCOU, 7-hydroxycoumarin]
RE: 3.52%
//
Molecule: O=C(O)/C=C/c1ccccc1O [OCA, o-coumaric acid]
RE: -3.01%
//
Molecule: O=c1ccc2ccccc2o1 [COU, 1,2 benzopyrone]
RE: 5.00%
//
Molecule: C=C1C[C@@]23CC[C@H]4[C@@](C)(CCC[C@@]4(C)C(=O)O)[C@@H]2CC[C@@H]1C3 [KAU, kaurenoic acid]
RE: 1.96%

---

Experiment: Pharmacokinetic study: volunteers orally received 60 mL of guaco syrup spiked with 1500 mg of COU, plasma by HPLC-MS/MS
Type: in vivo, human
Condition set: both sexes; human plasma, oral, 60 mL guaco syrup spiked with 1500 mg coumarin, n = 5, mean ± S.D.
Recorded endpoint: Tmax

Molecule: O=C(O)/C=C/c1ccccc1O [OCA, o-coumaric acid]
Observed result: 1.45 h

Molecule: O=c1ccc2ccccc2o1 [COU, 1,2 benzopyrone]
Observed result: 0.93 h

Molecule: O=c1ccc2ccc(O)cc2o1 [7-HCOU, 7-hydroxycoumarin]
Observed result: 1.4 h

---

Parameter: Mean recovery. Scope: all listed entries.
Experiment: Stability of stock solutions and working standard solutions
Assay type: physicochemical
Condition set: 8 h at room temperature; high level (Coumarin 1250.0, 7-hydroxycoumarin 750.0, o-coumaric acid 750.0, Kaurenoic acid 500.0 ng/mL); n = 8, ± SD

Compound: C=C1C[C@@]23CC[C@H]4[C@@](C)(CCC[C@@]4(C)C(=O)O)[C@@H]2CC[C@@H]1C3
Mean recovery: 516.6 ± 5.1 ng/mL

Compound: O=c1ccc2ccc(O)cc2o1 [7-HCOU, 7-hydroxycoumarin]
Mean recovery: 757.9 ± 5.6 ng/mL

Compound: O=C(O)/C=C/c1ccccc1O
Mean recovery: 718.0 ± 48.0 ng/mL

Compound: O=c1ccc2ccccc2o1
Mean recovery: 1293.1 ± 30.5 ng/mL

---

Experiment: Stability of stock solutions and working standard solutions
Format: physicochemical
Condition set: 8 h at room temperature; low level; stored vs freshly prepared
Parameter: RE. Scope: all listed entries.
Recorded endpoint: RE (%)

Molecule: O=c1ccc2ccccc2o1
Observed result: 8.94

Molecule: O=C(O)/C=C/c1ccccc1O
Observed result: -9.44

Molecule: C=C1C[C@@]23CC[C@H]4[C@@](C)(CCC[C@@]4(C)C(=O)O)[C@@H]2CC[C@@H]1C3
Observed result: 8.94

Molecule: O=c1ccc2ccc(O)cc2o1 [7-HCOU, 7-hydroxycoumarin]
Observed result: -7.41

---

Experiment: Pharmacokinetic study: volunteers orally received 60 mL of guaco syrup spiked with 1500 mg of COU, plasma by HPLC-MS/MS
Assay type: in vivo, human
Condition set: both sexes; human plasma, oral, 60 mL guaco syrup spiked with 1500 mg coumarin, n = 5, mean ± S.D.

Compound: O=C(O)/C=C/c1ccccc1O
Measurement unit: ng·h/mL
AUC(0-inf): 518
//
Compound: O=c1ccc2ccccc2o1
Measurement unit: ng·h/mL
AUC(0-inf): 1460
//
Compound: O=c1ccc2ccc(O)cc2o1 [7-HCOU, 7-hydroxycoumarin]
Measurement unit: ng·h/mL
AUC(0-inf): 134

---

Experiment: Stability in human plasma: short-term, freeze-thaw and long-term
Assay type: in vitro ADME
Condition set: Short-term; low level
Recorded endpoint: RE (%)

Molecule: O=c1ccc2ccccc2o1
Observed result: 4.81

Molecule: O=c1ccc2ccc(O)cc2o1 [7-HCOU, 7-hydroxycoumarin]
Observed result: -6.24

Molecule: O=C(O)/C=C/c1ccccc1O
Observed result: 0.79

Molecule: C=C1C[C@@]23CC[C@H]4[C@@](C)(CCC[C@@]4(C)C(=O)O)[C@@H]2CC[C@@H]1C3
Observed result: 0.23

---

Experiment: Stability of stock solutions and working standard solutions
Format: physicochemical
Condition set: 8 h at room temperature; high level; stored vs freshly prepared

Compound: O=c1ccc2ccc(O)cc2o1 [7-HCOU, 7-hydroxycoumarin]
RE / %: 1.06
//
Compound: O=c1ccc2ccccc2o1
RE / %: 3.45
//
Compound: C=C1C[C@@]23CC[C@H]4[C@@](C)(CCC[C@@]4(C)C(=O)O)[C@@H]2CC[C@@H]1C3
RE / %: 3.33
//
Compound: O=C(O)/C=C/c1ccccc1O
RE / %: -4.26

---

Parameter: Mean recovery. Scope: all listed entries.
Experiment: Post-preparative stability of extracted samples
Assay type: physicochemical
Condition set: post-preparative: extracted samples 24 hours at 20°C; low level (50.0, 12.5, 25.0, 10.0 ng/mL); n = 8, ± SD

Compound: C=C1C[C@@]23CC[C@H]4[C@@](C)(CCC[C@@]4(C)C(=O)O)[C@@H]2CC[C@@H]1C3
Measurement unit: ng/mL
Mean recovery: 9.8
//
Compound: O=C(O)/C=C/c1ccccc1O
Measurement unit: ng/mL
Mean recovery: 22.7
//
Compound: O=c1ccc2ccccc2o1
Measurement unit: ng/mL
Mean recovery: 47.6
//
Compound: O=c1ccc2ccc(O)cc2o1 [7-HCOU, 7-hydroxycoumarin]
Measurement unit: ng/mL
Mean recovery: 11.5

---

Experiment: Stability of stock solutions and working standard solutions
Assay type: physicochemical
Condition set: 30 days at 4 °C (stock solutions); high level (1250.0, 750.0, 750.0, 500.0 ng/mL); n = 8, ± SD
Parameter: Mean recovery. Scope: all listed entries.

Compound: O=C(O)/C=C/c1ccccc1O
Mean recovery, ng/mL: 640.8
--
Compound: O=c1ccc2ccccc2o1
Mean recovery, ng/mL: 1173.4
--
Compound: O=c1ccc2ccc(O)cc2o1 [7-HCOU, 7-hydroxycoumarin]
Mean recovery, ng/mL: 791.8
--
Compound: C=C1C[C@@]23CC[C@H]4[C@@](C)(CCC[C@@]4(C)C(=O)O)[C@@H]2CC[C@@H]1C3
Mean recovery, ng/mL: 487.8
